Hi! I'm sharing some MIC results obtained with Staphylococcus epidermidis KCTC 1917.
metric.name: MIC (µM)

compound: CC[C@H](C)[C@H](N)C(=O)N[C@@H](CC(C)C)C(=O)N1CCC[C@H]1C(=O)N[C@@H](Cc1c[nH]c2ccccc12)C(=O)N[C@@H](CCCCN)C(=O)N[C@@H](Cc1c[nH]c2ccccc12)C(=O)N[C@@H](CCCCN)C(=O)N[C@@H](Cc1c[nH]c2ccccc12)C(=O)N[C@@H](Cc1c[nH]c2ccccc12)C(=O)N1CCC[C@H]1C(=O)N[C@@H](Cc1c[nH]c2ccccc12)C(=O)N[C@@H](CCCN=C(N)N)C(=O)N[C@@H](CCCN=C(N)N)C(N)=O [ILPWKWKWWPWRR]
target: Staphylococcus epidermidis KCTC 1917
metric.name: MIC
result.unit: µM
value.relation.sign: =
value.observed: 5.16
//
compound: CC(C)C[C@H](NC(=O)CNC(=O)[C@H](Cc1ccc(O)cc1)NC(=O)[C@H](C)NC(=O)[C@@H]1CCCN1C(=O)[C@H](CC(C)C)NC(=O)[C@H](CCC(=O)O)NC(=O)[C@H](Cc1ccccc1)NC(=O)[C@H](Cc1cnc[nH]1)NC(=O)[C@H](CO)NC(=O)[C@@H](N)CCCCN)C(=O)O [KSHFELPAYGL]
target: Staphylococcus epidermidis KCTC 1917
metric.name: MIC
result.unit: µM
value.relation.sign: ≥
value.observed: 267
//
compound: CC[C@H](C)[C@H](NC(=O)[C@H](CCCCN)NC(=O)[C@H](Cc1c[nH]c2ccccc12)NC(=O)[C@H](Cc1ccccc1)NC(=O)[C@H](CC(C)C)NC(=O)[C@H](CCCCN)NC(=O)[C@H](CCCCN)NC(=O)[C@@H](N)CCCCN)C(=O)N1CCC[C@H]1C(=O)N[C@@H](CCCCN)C(=O)N[C@@H](Cc1ccccc1)C(=O)N[C@@H](CC(C)C)C(=O)N[C@@H](Cc1cnc[nH]1)C(=O)N[C@@H](CC(C)C)C(=O)N[C@@H](C)C(=O)N[C@@H](CCCCN)C(=O)N[C@@H](CCCCN)C(=O)N[C@@H](Cc1ccccc1)C(N)=O [KKKLFWKIPKFLHLAKKF]
target: Staphylococcus epidermidis KCTC 1917
metric.name: MIC
result.unit: µM
value.relation.sign: =
value.observed: 1

---

Reported MIC values for the following molecules.
System: Candida albicans ATCC 90028
Experiment: ≥ marks a high value that may be exact or a test limit, other limits are often not marked, values filed in µg/mL are converted to µM

molecule: CC[C@H](C)[C@H](NC(=O)[C@H](CCCCN)NC(=O)[C@@H](NC(=O)[C@@H](NC(=O)[C@H](CCCCN)NC(=O)CNC(=O)[C@H](CC(C)C)NC(=O)[C@@H](NC(=O)[C@H](CO)NC(=O)CNC(=O)[C@H](C)NC(=O)[C@H](CCCCN)NC(=O)[C@H](CO)NC(=O)[C@H](C)NC(=O)[C@H](CCSC)NC(=O)CN)C(C)C)[C@@H](C)CC)[C@@H](C)O)C(=O)N[C@@H](C)C(=O)N[C@@H](CC(C)C)C(=O)NCC(=O)N[C@@H](C)C(=O)N[C@@H](CC(C)C)C(N)=O [GMASKAGSVLGKITKIALGAL]
MIC: ≥ 50 µM
--
molecule: CC(C)C[C@H](NC(=O)[C@H](CCCCN)NC(=O)[C@H](CCCN=C(N)N)NC(=O)[C@H](Cc1ccccc1)NC(=O)[C@H](Cc1ccccc1)NC(=O)[C@H](CCCCN)NC(=O)[C@H](CCCCN)NC(=O)[C@H](Cc1ccccc1)NC(=O)[C@H](CCCN=C(N)N)NC(=O)[C@H](CCCCN)NC(=O)[C@@H](N)C(C)C)C(=O)N[C@@H](CCCCN)C(=O)N[C@@H](CCCCN)C(=O)N[C@@H](CO)C(N)=O [VKRFKKFFRKLKKS]
MIC: ≥ 69.6 µM

---

Reported MIC values for the following molecules.
System: Staphylococcus aureus

chemical.smiles: CC[C@H](C)[C@H](NC(=O)[C@H](CCCCN)NC(=O)[C@H](CC(C)C)NC(=O)[C@H](CCCN=C(N)N)NC(=O)[C@H](CC(C)C)NC(=O)[C@H](CCCCN)NC(=O)[C@@H](N)CCCCN)C(=O)N[C@@H](C)C(=O)N[C@@H](Cc1ccccc1)C(=O)N[C@@H](CCCCN)C(=O)O
MIC: > 32 µM
//
chemical.smiles: CC[C@H](C)[C@H](NC(=O)[C@H](CCCCN)NC(=O)CNC(=O)[C@H](CC(C)C)NC(=O)[C@@H](NC(=O)[C@H](CCCCN)NC(=O)[C@H](CCCCN)NC(=O)[C@H](Cc1c[nH]c2ccccc12)NC(=O)[C@H](CC(N)=O)NC(=O)[C@@H](N)C(C)C)[C@@H](C)CC)C(N)=O
MIC: > 100 µM
//
chemical.smiles: CSCC[C@H](N=C(O)[C@H](CC(C)C)N=C(O)CN)C(O)=N[C@@H](CO)C(O)=N[C@H](C(O)=N[C@@H](CC(C)C)C(O)=NCC(O)=N[C@@H](Cc1cnc[nH]1)C(O)=N[C@@H](C)C(O)=N[C@H](C(O)=NCC(O)=N[C@@H](CC(=N)O)C(O)=N[C@H](C(O)=N[C@@H](CC(C)C)C(O)=NCC(O)=NCC(O)=N[C@@H](CC(C)C)C(O)=N[C@@H](Cc1ccccc1)C(O)=N[C@@H](CCCCN)C(=O)N1CCC[C@H]1C(O)=N[C@@H](CCCCN)C(=O)O)C(C)C)C(C)C)C(C)C
MIC: 45.8 µM

---

System: Proteus mirabilis
Experiment: ≥ marks a high value that may be exact or a test limit, other limits are often not marked, values filed in µg/mL are converted to µM

compound: NC(N)=NCCC[C@H](NC(=O)[C@H](CCCN=C(N)N)NC(=O)[C@H](CCCN=C(N)N)NC(=O)[C@H](CCCN=C(N)N)NC(=O)[C@H](CCCN=C(N)N)NC(=O)[C@H](CCCN=C(N)N)NC(=O)[C@H](CCCN=C(N)N)NC(=O)[C@H](CCCN=C(N)N)NC(=O)[C@H](Cc1c[nH]c2ccccc12)NC(=O)[C@H](Cc1c[nH]c2ccccc12)NC(=O)[C@H](Cc1c[nH]c2ccccc12)NC(=O)[C@@H](N)Cc1c[nH]c2ccccc12)C(=O)O [WWWWRRRRRRRR]
target: Proteus mirabilis
MIC: 31.8 µM
//
compound: CC(C)C[C@H](NC(=O)[C@@H](NC(=O)[C@H](CCCCN)NC(=O)[C@H](CO)NC(=O)[C@H](C)NC(=O)[C@@H](NC(=O)[C@H](CCCCN)NC(=O)[C@H](Cc1ccccc1)NC(=O)[C@H](CC(C)C)NC(=O)[C@H](C)NC(=O)CN)C(C)C)C(C)C)C(=O)O [GALFKVASKVL]
target: Proteus mirabilis
MIC: ≥ 177 µM
//
compound: CC[C@H](C)[C@H](NC(=O)[C@H](CCCN=C(N)N)NC(=O)[C@H](CCCCN)NC(=O)[C@H](CC(C)C)NC(=O)[C@H](CC(C)C)NC(=O)CN)C(=O)N[C@@H](CCCCN)C(=O)N[C@H](C(=O)N[C@@H](CC(C)C)C(=O)N[C@@H](CC(C)C)C(N)=O)[C@@H](C)O [GLLKRIKTLL]
target: Proteus mirabilis
MIC: ≥ 173 µM
//
compound: CC[C@H](C)[C@H](NC(=O)[C@H](Cc1ccccc1)NC(=O)CNC(=O)[C@H](CCCCN)NC(=O)[C@@H](NC(=O)[C@H](Cc1ccccc1)NC(=O)[C@H](CCCCN)NC(=O)[C@H](CCCN=C(N)N)NC(=O)[C@@H](NC(=O)[C@@H](NC(=O)[C@H](CCCN=C(N)N)NC(=O)[C@@H](NC(=O)[C@H](C)NC(=O)[C@H](Cc1c[nH]c2ccccc12)NC(=O)[C@@H](N)CCCCN)C(C)C)[C@@H](C)CC)[C@@H](C)CC)[C@@H](C)CC)C(=O)N[C@@H](CO)C(N)=O [KWAVRIIRKFIKGFIS]
target: Proteus mirabilis
MIC: ≥ 65.2 µM

---

Tested on: Candida albicans F7-39/IDE99
Reported MIC values for the following compounds.

chemical.smiles: CC[C@H](C)[C@H](NC(=O)CN)C(=O)N[C@@H](CC(C)C)C(=O)N[C@@H](CO)C(=O)N[C@@H](CO)C(=O)N[C@@H](CC(C)C)C(=O)N[C@@H](CC(C)C)C(=O)N[C@@H](CCCCN)C(=O)N[C@@H](CCCCN)C(=O)N[C@@H](Cc1c[nH]c2ccccc12)C(=O)N[C@@H](CCCCN)C(=O)N[C@@H](CCCCN)C(=O)N[C@H](C(=O)N[C@H](C(=O)N[C@@H](C)C(=O)N[C@@H](CCCCN)C(N)=O)[C@@H](C)CC)[C@@H](C)CC
target: Candida albicans F7-39/IDE99
result.unit: µM
MIC: 11
--
chemical.smiles: CC[C@H](C)[C@H](NC(=O)[C@H](Cc1cnc[nH]1)NC(=O)[C@H](CCCCN)NC(=O)[C@H](CC(C)C)NC(=O)[C@H](CC(C)C)NC(=O)[C@@H](NC(=O)[C@H](CCSC)NC(=O)[C@H](Cc1c[nH]c2ccccc12)NC(=O)[C@H](CCCCN)NC(=O)CN)[C@@H](C)O)C(=O)N[C@@H](CC(C)C)C(=O)N[C@@H](CCCCN)C(N)=O
target: Candida albicans F7-39/IDE99
result.unit: µM
MIC: 7
